# System: HeLa Kyoto;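 note: HeLa Kyoto cells synchronized by double thymidine or nocodazole block, proteins quantified by TMT10plex mass spectrometry, three independent biological replicates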
# METHOD SUMMARY: melting temperature (median over replicates), in situ; higher = more thermally stable
# PARTICULARS: cell cycle stage: mitosis

# BIOPOLYMER SEQUENCE, melting temperature [°C]
records = [
    ("MEKTELIQKAKLAEQAERYDDMATCMKAVTEQGAELSNEERNLLSVAYKNVVGGRRSAWRVISSIEQKTDTSDKKLQLIKDYREKVESELRSICTTVLELLDKYLIANATNPESKVFYLKMKGDYFRYLAEVACGDDRKQTIDNSQGAYQEAFDISKKEMQPTHPIRLGLALNFSVFYYEILNNPELACTLAKTAFDEAIAELDTLNEDSYKDSTLIMQLLRDNLTLWTSDSAGEECDAAEGAEN [YWHAQ]", 52),
    ("MSLGRLCRLLKPALLCGALAAPGLAGTMCASRDDWRCARSMHEFSAKDIDGHMVNLDKYRGFVCIVTNVASQUGKTEVNYTQLVDLHARYAECGLRILAFPCNQFGKQEPGSNEEIKEFAAGYNVKFDMFSKICVNGDDAHPLWKWMKIQPKGKGILGNAIKWNFTKFLIDKNGCVVKRYGPMEEPLVIEKDLPHYF [GPX4]", 56.3),
    ("MAEAGTGEPSPSVEGEHGTEYDTLPSDTVSLSDSDSDLSLPGGAEVEALSPMGLPGEEDSGPDEPPSPPSGLLPATVQPFHLRGMSSTFSQRSRDIFDCLEGAARRAPSSVAHTSMSDNGGFKRPLAPSGRSPVEGLGRAHRSPASPRVPPVPDYVAHPERWTKYSLEDVTEVSEQSNQATALAFLGSQSLAAPTDCVSSFNQDPSSCGEGRVIFTKPVRGVEARHERKRVLGKVGEPGRGGLGNPATDRGEGPVELAHLAGPGSPEAEEWGSHHGGLQEVEALSGSVHSGSVPGLPPVETVGFHGSRKRSRDHFRNKSSSPEDPGAEV [TSSC4]", 50.5),
]
